target: Recombinant human soluble BACE-1 catalytic domain (Homo sapiens (Human), UniProt P56817); experiment: BACE-1 Ki Assay (BACE-1 HTRF FRET Assay); type: biochemical; details: Table 1; Ki calculated from IC50 with Cheng-Prusoff equation; read-out: BACE1 Ki
Sequence (P56817 75-416): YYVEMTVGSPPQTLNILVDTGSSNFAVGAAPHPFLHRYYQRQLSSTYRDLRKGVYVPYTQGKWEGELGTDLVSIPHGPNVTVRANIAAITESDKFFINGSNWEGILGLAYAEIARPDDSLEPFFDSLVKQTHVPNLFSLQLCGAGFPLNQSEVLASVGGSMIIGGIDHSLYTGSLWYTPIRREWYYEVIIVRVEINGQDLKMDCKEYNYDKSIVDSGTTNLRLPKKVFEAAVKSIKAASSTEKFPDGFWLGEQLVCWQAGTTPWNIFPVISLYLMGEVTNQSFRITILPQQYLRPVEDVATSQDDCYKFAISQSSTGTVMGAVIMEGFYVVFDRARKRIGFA
Observable: Ki (nM)

{"columns": ["Smiles Repr", "Value Measured"],
 "data": [
  ["CN1C(=N)N[C@](C)(c2cc(Nc3nccc4cc(Cl)cnc34)ccc2F)CS1(=O)=O", 1.2],
  ["CN1C(=N)N[C@](C)(c2cc(Nc3nccc4cc(F)cnc34)ccc2F)CS1(=O)=O", 2.1],
  ["CN1C(=N)N[C@](C)(c2c(F)ccc(Nc3nccc4cc(C#N)cnc34)c2F)CS1(=O)=O", 2.1]
]}
